Reported LC50 values for the following molecules.
# System: NCI-H226
# test-details: Growth inhibition of human NCI-H226 cells after 48 hrs by sulforhodamine B assay
# Assay type: functional
# measurement-setup: NCI-H226, 48 h

Worked set:
COCOc1cc(/C=C/c2cc(C=O)c3c(c2)C[C@@H]2C(C)(C)[C@H](O)CC[C@@]2(C)O3)cc(OC)c1C/C=C(\C)CCC=C(C)C    > 100 µM
COc1cc(/C=C/c2cc(O)c3c(c2)C[C@@H]2C(C)(C)[C@H](O)CC[C@@]2(C)O3)cc(O)c1C/C=C(\C)CCC=C(C)C    55 µM
COc1cc(/C=C/c2ccc3c(c2)C[C@@H]2C(C)(C)[C@H](O)CC[C@@]2(C)O3)cc(O)c1C/C=C(\C)CCC=C(C)C    > 100 µM
COCOc1cc(/C=C/c2cc(CO)c3c(c2)C[C@@H]2C(C)(C)[C@H](O)CC[C@@]2(C)O3)cc(OC)c1C/C=C(\C)CCC=C(C)C    64.6 µM

Please indicate LC50 recorded for `COc1cc(/C=C/c2cc(F)c3c(c2)C[C@@H]2C(C)(C)[C@H](O)CC[C@@]2(C)O3)cc(O)c1C/C=C(\C)CCC=C(C)C` > 100 µM

Please indicate LC50 recorded for `COc1cc(/C=C/c2cc3c(c(OC)c2)O[C@]2(C)CC[C@@H](O)C(C)(C)[C@H]2C3)cc(O)c1C/C=C(\C)CCC=C(C)C` 25.7 µM

Please indicate LC50 recorded for `COc1cc(/C=C/c2cc3c(c(SC)c2)O[C@]2(C)CC[C@@H](O)C(C)(C)[C@H]2C3)cc(O)c1C/C=C(\C)CCC=C(C)C` > 100 µM

---

Reported GI50 values for the following compounds.
# System: SK-MEL-28
# test-details: Growth inhibition of human SK-MEL-28 cells after 48 hrs by sulforhodamine B assay
# Assay type: functional
# measurement-setup: SK-MEL-28, 48 h
# output: bare number, implied unit µM

Worked set:
COCOc1cc(/C=C/c2cc(C=O)c3c(c2)C[C@@H]2C(C)(C)[C@H](O)CC[C@@]2(C)O3)cc(OC)c1C/C=C(\C)CCC=C(C)C    2.95
COc1cc(/C=C/c2cc(F)c3c(c2)C[C@@H]2C(C)(C)[C@H](O)CC[C@@]2(C)O3)cc(O)c1C/C=C(\C)CCC=C(C)C    12
COc1cc(/C=C/c2cc3c(c(SC)c2)O[C@]2(C)CC[C@@H](O)C(C)(C)[C@H]2C3)cc(O)c1C/C=C(\C)CCC=C(C)C    12.3
COc1cc(/C=C/c2cc3c(c(OC)c2)O[C@]2(C)CC[C@@H](O)C(C)(C)[C@H]2C3)cc(O)c1C/C=C(\C)CCC=C(C)C    4.27
COc1cc(/C=C/c2cc(O)c3c(c2)C[C@@H]2C(C)(C)[C@H](O)CC[C@@]2(C)O3)cc(O)c1C/C=C(\C)CCC=C(C)C    1

Please indicate GI50 recorded for `COc1cc(/C=C/c2ccc3c(c2)C[C@@H]2C(C)(C)[C@H](O)CC[C@@]2(C)O3)cc(O)c1C/C=C(\C)CCC=C(C)C` 16.2

Please indicate GI50 recorded for `COCOc1cc(/C=C/c2cc(CO)c3c(c2)C[C@@H]2C(C)(C)[C@H](O)CC[C@@]2(C)O3)cc(OC)c1C/C=C(\C)CCC=C(C)C` 1.2
